The reported measurements were obtained from patent US6500846B1.

Recorded pIC50 for the following compounds
- target system: CDK4/cyclin D1 (Homo sapiens, UniProt P11802)
- Sequence (P11802 whole entry, species assumed): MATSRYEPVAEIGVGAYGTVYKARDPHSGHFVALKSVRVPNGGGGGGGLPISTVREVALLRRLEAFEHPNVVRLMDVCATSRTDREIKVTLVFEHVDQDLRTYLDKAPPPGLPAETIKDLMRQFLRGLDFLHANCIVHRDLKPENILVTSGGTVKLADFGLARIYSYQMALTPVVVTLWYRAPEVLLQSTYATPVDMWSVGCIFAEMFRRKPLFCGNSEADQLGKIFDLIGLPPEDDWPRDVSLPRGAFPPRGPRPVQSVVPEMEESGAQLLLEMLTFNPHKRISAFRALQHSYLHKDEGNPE
- Sequence (P24385 whole entry partner, species assumed): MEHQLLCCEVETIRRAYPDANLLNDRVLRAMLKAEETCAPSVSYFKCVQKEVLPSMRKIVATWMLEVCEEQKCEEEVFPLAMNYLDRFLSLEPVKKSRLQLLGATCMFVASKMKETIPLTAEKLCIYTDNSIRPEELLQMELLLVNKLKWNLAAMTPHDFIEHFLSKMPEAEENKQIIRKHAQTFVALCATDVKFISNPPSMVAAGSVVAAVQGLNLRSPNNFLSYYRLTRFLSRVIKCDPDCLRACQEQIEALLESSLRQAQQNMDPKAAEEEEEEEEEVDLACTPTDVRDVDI
- protocol description: Inhibitory activity against CDK4/cyclin D1 enzyme (GST-RB phosphorylation, P32-γ-ATP, scintillation counting)
- particulars: CDK4/cyclin D1, 100 μM ATP, GST-RB substrate, 30° C. 30 minutes
Keep in mind that pIC50 stands for -log10 of concentration in molar terms.

O=C(N1CCc2ccc(S(=O)(=O)Nc3ccc4oc(-c5ccc(O)c(O)c5)c(O)c(=O)c4c3)cc2C1)C(F)(F)F
5.64
O=c1c(O)c(-c2ccc(O)c(O)c2)oc2ccc(NS(=O)(=O)c3ccc4c(c3)CNCC4)cc12
5.20
Cc1ccc(S(=O)(=O)Nc2ccc3oc(-c4ccc(O)c(O)c4)c(O)c(=O)c3c2)cc1
5.11

Which pIC50 is listed for O=C(Nc1ccc([N+](=O)[O-])cc1)Nc1ccc2oc(-c3ccc(O)c(O)c3)c(O)c(=O)c2c1 ?
5.77

What would you report for O=c1c(O)c(-c2ccc(O)c(O)c2)oc2ccc(NS(=O)(=O)c3ccc(N4CCOCC4)c([N+](=O)[O-])c3)cc12 ?
6.03

Repeat for the following compound: O=c1c(O)c(-c2ccc(O)c(O)c2)oc2ccc(NS(=O)(=O)c3ccc(-c4ccon4)s3)cc12
5.46

And the next one, O=C(O)c1ccc(S(=O)(=O)Nc2ccc3oc(-c4ccc(O)c(O)c4)c(O)c(=O)c3c2)cc1 ?
5.22

Same question, O=c1c(O)c(-c2ccc(O)c(O)c2)oc2ccc(NS(=O)(=O)c3ccc(-c4ccccc4)cc3)cc12 this time
5.70

---

- target system: CDK4/cyclin D1 (Homo sapiens, UniProt P11802)
- protocol description: Inhibitory activity against CDK4/cyclin D1 enzyme (GST-RB phosphorylation, P32-γ-ATP, scintillation counting)
- particulars: CDK4/cyclin D1, 100 μM ATP, GST-RB substrate, 30° C. 30 minutes
measured metric: IC50

These recorded examples may help you get a feel for the data.
CN(C)c1cccc2c(S(=O)(=O)Nc3ccc4oc(-c5ccc(O)c(O)c5)c(O)c(=O)c4c3)cccc12
4.2 µM
O=c1c(O)c(-c2ccc(O)c(O)c2)oc2ccc(NS(=O)(=O)c3ccc(F)cc3F)cc12
4.3 µM

Entry COc1ccc(-c2oc3ccccc3c(=O)c2O)cc1 has what IC50?
> 100 µM

Proceed to CN1CCN(c2ccc(S(=O)(=O)Nc3ccc4oc(-c5ccc(O)c(O)c5)c(O)c(=O)c4c3)cc2N)CC1
30 µM

Try the molecule Cc1cc2oc(-c3ccc(O)c(O)c3)c(O)c(=O)c2cc1Cl
< 10 µM

---

- target system: CDK2/cyclin A (Homo sapiens)
- protocol description: Inhibitory activity against CDK2/cyclin A enzyme (GST-RB phosphorylation, P32-γ-ATP, scintillation counting)
- particulars: 100 μM ATP, GST-RB substrate, 30° C. 30 minutes
- Protocol: Analysis of inhibitory activity against CDK2/cyclin A and CDK4/cyclin D1 enzyme. The inhibitory activity against CDK2 is measured by referring to Kitagawa, M. et al., Oncogene 9:2549, 1994 and the inhibitory activity against CDK4 is measured by referring to Carlson, B. A. et al., Cancer Research 56:2473,1996. […] Specifically the activities of enzymes CDK2/cyclin A and CDK4/cyclin D1 were determined according to the following procedure. […]
List of IC50 values.

Look up IC50 for this molecule: COc1ccc(-c2oc3cc(OC)ccc3c(=O)c2O)cc1
> 100 µM

Same thing, different molecule: O=c1c(O)c(-c2ccc(O)c(O)c2)oc2ccc(NS(=O)(=O)c3ccc(F)c(F)c3)cc12
19 µM

Request: Nc1ccc(NC(=O)Nc2ccc3oc(-c4ccc(O)c(O)c4)c(O)c(=O)c3c2)cc1
2.6 µM

// repeat for COc1ccc2c(=O)c(O)c(-c3ccc(O)c(O)c3)oc2c1 and report
< 30 µM

Same read-out for COc1ccc2c(=O)cc(-c3ccc(Cl)cc3)oc2c1 ?
> 200 µM

---

- target system: CDK4/cyclin D1 (Homo sapiens, UniProt P11802)
- protocol description: Inhibitory activity against CDK4/cyclin D1 enzyme (GST-RB phosphorylation, P32-γ-ATP, scintillation counting)
- particulars: CDK4/cyclin D1, 100 μM ATP, GST-RB substrate, 30° C. 30 minutes
measured metric: IC50

COc1ccc2oc(-c3ccc(O)c(O)c3)c(O)c(=O)c2c1 [Compound 16]
< 10 µM
O=c1c(O)c(-c2ccc(O)c(O)c2)oc2c(Cl)cc(Cl)cc12 [Compound 19]
< 10 µM
O=C(Nc1ccc2oc(-c3ccc(O)c(O)c3)c(O)c(=O)c2c1)Nc1ccc(Cl)cc1Cl [Compound 59]
10 µM
COc1ccc2c(=O)c(O)c(-c3ccc(Cl)cc3)oc2c1 [Compound 8]
> 100 µM
O=c1c(O)c(-c2ccc(O)c(O)c2)oc2ccc(NS(=O)(=O)CCCCl)cc12 [Compound 41]
6.5 µM

Would you kindly share the measured IC50 for O=c1c(O)c(-c2ccc(O)c(O)c2)oc2cc(O)ccc12 [Compound 64] ?
< 10 µM

Also, COc1ccc2c(=O)c(O)c(-c3ccc4c(c3)OCO4)oc2c1 [Compound 6] please.
> 100 µM

Again, but for O=c1cc(-c2ccccc2)oc2cc(O)ccc12 [Compound 3, 7-hydroxy-2-phenyl-chromen-4-one]
> 200 µM

---

- target system: CDK2/cyclin A (Homo sapiens)
- protocol description: Inhibitory activity against CDK2/cyclin A enzyme (GST-RB phosphorylation, P32-γ-ATP, scintillation counting)
- particulars: 100 μM ATP, GST-RB substrate, 30° C. 30 minutes
Item-by-item account of pIC50
A value of pIC50 is the negative decimal logarithm of a concentration given in moles per litre.

So what does the record say about pIC50 for CN1CCN(c2ccc(S(=O)(=O)Nc3ccc4oc(-c5ccc(O)c(O)c5)c(O)c(=O)c4c3)cc2[N+](=O)[O-])CC1 ?
4.51

Same thing, different compound: CC(=O)Nc1ccc2oc(-c3ccc(O)c(O)c3)c(O)c(=O)c2c1
5.25

Entry O=C(NC(=O)c1ccccc1)Nc1ccc2oc(-c3ccc(O)c(O)c3)c(O)c(=O)c2c1 please
4.65

What do you get for O=c1c(O)c(-c2ccc(O)c(O)c2)oc2ccc(NS(=O)(=O)c3cccc(Br)c3)cc12 ?
4.85

---

- target system: CDK4/cyclin D1 (Homo sapiens)
- protocol description: Inhibitory activity against CDK4/cyclin D1 enzyme (GST-RB phosphorylation, P32-γ-ATP, scintillation counting)
- particulars: CDK4/cyclin D1, 100 μM ATP, GST-RB substrate, 30° C. 30 minutes
measured metric: IC50

CN1CCN(c2ccc(S(=O)(=O)Nc3ccc4oc(-c5ccc(O)c(O)c5)c(O)c(=O)c4c3)cc2[N+](=O)[O-])CC1
1.6 µM
COc1cccc2oc(-c3ccc4c(c3)OCO4)c(O)c(=O)c12
> 100 µM

Give the measured IC50 of N#Cc1cccc(NC(=O)Nc2ccc3oc(-c4ccc(O)c(O)c4)c(O)c(=O)c3c2)c1 .
2.7 µM

Also O=c1c(O)c(-c2ccc(O)c(O)c2)oc2c(Br)cc(Br)cc12 , if possible.
< 5 µM

Now this one: COc1ccc2c(=O)c(O)c(-c3ccc(O)c(O)c3)oc2c1O
< 10 µM

O=c1c(O)c(-c2ccc(O)c(O)c2)oc2ccccc12 , same question.
< 10 µM

And then O=C(Nc1cccc(Br)c1)Nc1ccc2oc(-c3ccc(O)c(O)c3)c(O)c(=O)c2c1 , what is it?
4.2 µM

Repeat for the following molecule: COc1ccc(-c2oc3cc(OC)ccc3c(=O)c2O)cc1
> 100 µM

---

- target system: CDK2/cyclin A (Homo sapiens, UniProt P24941)
- protocol description: Inhibitory activity against CDK2/cyclin A enzyme (GST-RB phosphorylation, P32-γ-ATP, scintillation counting)
- particulars: 100 μM ATP, GST-RB substrate, 30° C. 30 minutes
measured metric: IC50 (µM)
Report the figure in µM without appending any unit label.

O=c1c(O)c(-c2ccc(O)c(O)c2)oc2ccc(NS(=O)(=O)NC3CCCCC3)cc12
65

Could you share which IC50 value was measured for O=c1c(O)c(-c2ccc(O)c(O)c2)oc2ccc(NS(=O)(=O)CCc3cccc4ccccc34)cc12 ?
63

And then O=c1c(O)c(-c2ccc(O)c(O)c2)oc2ccc(NS(=O)(=O)c3ccc(-c4ccccn4)s3)cc12 , what is it?
12.5

---

- target system: CDK2/cyclin A (Homo sapiens, UniProt P24941)
- Construct: made in house; host or cells: insect cells infected with baculoviruses
- protocol description: Inhibitory activity against CDK2/cyclin A enzyme (GST-RB phosphorylation, P32-γ-ATP, scintillation counting)
- Type: biochemical
- particulars: 100 μM ATP, GST-RB substrate, 30° C. 30 minutes
- Description: Analysis of inhibitory activity against CDK2/cyclin A and CDK4/cyclin D1 enzyme. The inhibitory activity against CDK2 is measured by referring to Kitagawa, M. et al., Oncogene 9:2549, 1994 and the inhibitory activity against CDK4 is measured by referring to Carlson, B. A. et al., Cancer Research 56:2473,1996. […] Specifically the activities of enzymes CDK2/cyclin A and CDK4/cyclin D1 were determined according to the following procedure. […]
measured metric: pIC50
Note: pIC50 values are expressed as the negative base-10 logarithm of concentration in M.

// worked examples, pIC50 included
O=C(Nc1ccc(Br)cc1)Nc1ccc2oc(-c3ccc(O)c(O)c3)c(O)c(=O)c2c1
5.89
O=c1c(O)c(-c2ccc(O)c(O)c2)oc2ccc(NS(=O)(=O)c3ccc(-c4ccccc4)cc3)cc12
5.40

Fill in the blank: the reported pIC50 of O=c1c(O)c(-c2ccc(O)c(O)c2)oc2ccc(NS(=O)(=O)CCCCl)cc12 is ____.
4.70

Can you check O=c1c(O)c(-c2ccc(O)c(O)c2)oc2ccc(NS(=O)(=O)c3ccc4c(c3)CNCC4)cc12 next?
4.09
